test system: c-Abl (mouse); test: phosphorylation enrichment, bacterial display (enrichment ratio); higher = better substrate or ligand; peptides without Tyr show the background;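 further: 11-residue human phosphosite peptides and single-mutation variants displayed on the E. coli surface, counted by deep sequencing, each peptide's frequency after selection divided by its frequency in the unselected input library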;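 further: frequency after pTyr selection over input frequency; kinase dosed for 20-30% of maximal phosphorylation in three min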
Below, each entry is listed alongside its reported phosphorylation enrichment.
Just the number, please, no unit attached.

[
  {
    "Sequence Chain": "GVTLLYFGRDN [ADGRD1_Y85_Y89D_YF]",
    "Target Or Test System": "c-Abl (mouse)",
    "phosphorylation enrichment": 0.643
  }
]

### Prompt Fill in the blank: the reported phosphorylation enrichment of SFPSYYTSHVQ [NEFL_Y443] is ____.
### Response 1.85

### Prompt // same read-out, input: DFPMGYPSYLA [TBCK_Y153_I151M]
### Response 0.507

### Prompt // same read-out, input: EAVSIYQFFGQ [CBLC_Y402_H405Y_YF]
### Response 6.44

### Prompt // same read-out, input: ARGMEYLASKK [FGFR1_Y613]
### Response 0.506

### Prompt // same read-out, input: KKYPDYIQSAM [SGMS2_Y59_I62S]
### Response 0.595

### Prompt // same read-out, input: LTFDEYRNNSQ [ANXA3_Y216_I219N]
### Response 1.13

### Prompt // same read-out, input: VAFVYYKSIGP [ADGRL4_Y302]
### Response 0.907

====

test system: c-Abl (mouse); test: phosphorylation enrichment, bacterial display (enrichment ratio); higher = better substrate or ligand; peptides without Tyr show the background
Binary call on phosphorylation enrichment: T from 0.6 upward, F beneath that.

### Prompt Determine whether this sequence has phosphorylation enrichment no lower than 0.6: RRERLYGGGGG [FUS_Y526_P525L]
### Response F

### Prompt // same read-out, input: LLREWYVQDPY [SIX3_Y225_L226V]
### Response T

### Prompt // same read-out, input: GGFTWYCDGKK [PROS1_Y266_C265W_YF]
### Response T

### Prompt // same read-out, input: SIKDKYLTALF [KCNH2_Y611_V612L_YF]
### Response F

### Prompt // same read-out, input: LLANAYIFDVQ [L1CAM_Y418_V421D_YF]
### Response T

### Prompt // same read-out, input: DDHFTYSRYPW [LY75_Y888]
### Response T

====

target: FGFR3 (UniProt P22607); experiment: phosphorylation enrichment, bacterial display (enrichment ratio); higher = better substrate or ligand; peptides without Tyr show the background
Sequence (P22607 whole entry, looked up): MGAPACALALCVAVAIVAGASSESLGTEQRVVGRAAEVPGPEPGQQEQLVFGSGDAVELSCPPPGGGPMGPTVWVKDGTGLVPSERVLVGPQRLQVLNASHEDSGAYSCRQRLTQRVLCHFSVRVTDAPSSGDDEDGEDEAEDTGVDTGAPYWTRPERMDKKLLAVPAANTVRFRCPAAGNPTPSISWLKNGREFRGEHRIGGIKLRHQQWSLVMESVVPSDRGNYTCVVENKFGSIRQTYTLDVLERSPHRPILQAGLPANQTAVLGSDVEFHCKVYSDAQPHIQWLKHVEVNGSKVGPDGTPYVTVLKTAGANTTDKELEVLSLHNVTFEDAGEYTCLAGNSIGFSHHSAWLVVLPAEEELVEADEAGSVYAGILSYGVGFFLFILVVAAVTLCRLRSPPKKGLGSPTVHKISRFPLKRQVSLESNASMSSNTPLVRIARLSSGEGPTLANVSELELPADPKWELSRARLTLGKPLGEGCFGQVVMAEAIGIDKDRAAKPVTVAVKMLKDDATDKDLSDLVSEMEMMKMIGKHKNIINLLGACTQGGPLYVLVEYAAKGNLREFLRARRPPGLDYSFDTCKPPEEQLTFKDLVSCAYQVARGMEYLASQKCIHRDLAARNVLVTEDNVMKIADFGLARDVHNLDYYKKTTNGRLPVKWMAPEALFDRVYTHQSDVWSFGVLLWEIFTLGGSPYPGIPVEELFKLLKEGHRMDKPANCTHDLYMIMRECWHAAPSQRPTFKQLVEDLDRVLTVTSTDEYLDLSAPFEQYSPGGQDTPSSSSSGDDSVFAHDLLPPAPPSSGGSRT
Below, each entry is listed alongside its reported phosphorylation enrichment.
Just the number, please, no unit attached.

In the examples that follow, each entry is paired with its recorded phosphorylation enrichment.
[
  {
    "Sequence Chain": "KFWREYILSLE [GPC3_Y299_YF]",
    "Value Type": "phosphorylation enrichment",
    "Test Value": 0.72
  },
  {
    "Sequence Chain": "SFMVRYNQPRV [GRIN2D_Y736_YF]",
    "Value Type": "phosphorylation enrichment",
    "Test Value": 0.57
  },
  {
    "Sequence Chain": "FLTQHYDAEPQ [ANG_Y38_K41E]",
    "Value Type": "phosphorylation enrichment",
    "Test Value": 0.684
  },
  {
    "Sequence Chain": "IHETTHNSIMK [ACTA1_Y281_Y281H]",
    "Value Type": "phosphorylation enrichment",
    "Test Value": 0.39
  },
  {
    "Sequence Chain": "IHHIDYYKKTT [FGFR1_Y653]",
    "Value Type": "phosphorylation enrichment",
    "Test Value": 0.484
  }
]

### Prompt Fill in the blank: the reported phosphorylation enrichment of SPYMLYQYLKQ [RPAP3_Y567_D564Y] is ____.
### Response 4.11

### Prompt // same read-out, input: PESCFYKESWL [IQGAP2_Y630_L629F]
### Response 1.31

### Prompt // same read-out, input: RLRVVYPWTQR [HBB_Y36_L33R]
### Response 0.568

### Prompt // same read-out, input: DPHECYAKVFN [ALB_Y394_D399N]
### Response 0.643

### Prompt // same read-out, input: SVTCMYSPALN [TP53_Y126_T125M]
### Response 0.749

### Prompt // same read-out, input: FQHLRYIKQLG [SAMHD1_Y146_R143H]
### Response 0.611

### Prompt // same read-out, input: LWQSIYNLEAE [TNNT2_Y251]
### Response 1.05

### Prompt // same read-out, input: CEQELYSQLVY [WAS_Y102_W97C]
### Response 3.67

### Prompt // same read-out, input: HMEAVYIDIAD [PITPNA_Y140_V136M]
### Response 10.2
